system: CAKI-1 renal; assay: NCI-60 one-dose screen, 48 h (100 = growth as untreated, 0 = no growth, -100 = all killed); details: 10 µM unless noted
The panel holds about 83,000 compounds, 20% with a hit somewhere; the sample as a whole holds those more often.
ENDPOINT: growth (%)
Numbers only here, please. The scale is %.

COc1ccc(N=Nc2c(N)nn3c(N)c(C#N)c(-c4ccc(F)cc4)nc23)cc1; 58.6
O=CNc1cccc(-n2cnc3cc(-c4ccc(O)cc4)ccc32)c1; 42.2
CCc1ccc(SC2c3cc(OC)ccc3Oc3nc(N)c(C#N)c(N)c32)cc1 (stereo not drawn); -56.5
O=C1Nc2ccccc2/C1=C/C(=O)c1cc2ccccc2oc1=O; 75.5
COc1ccc2[nH]c(O)c(N=Nc3nc(-c4ccccc4)cs3)c2c1; 14

get_value(item= CCc1ccccc1-c1nc(CN[C@@H]2C[C@@H]3C[C@H]([C@H]2C)C3(C)C)c(C)o1 , readout=growth) returns -95

So for COc1ccc2c(c1)C(=O)N(C)C2C1c2c(cc3c(c2OC)OCO3)CCN1C (stereo not drawn) , the logged growth turned out to be 31.6

---

test system: SK-MEL-2 melanoma; experiment: NCI-60 one-dose screen, 48 h; conditions: 10 µM unless noted
The panel holds about 83,000 compounds, 20% with a hit somewhere; the sample as a whole holds those more often. Activity calls are given as the source filed them. Rule for the calls: active = growth percent below 10; inactive = the rest.
Pick from active, inactive when you respond.

Below, 7 compounds whose answers are already recorded.
O=C(NN1C(=O)/C(=C/C=C/c2ccc([N+](=O)[O-])o2)SC1=S)c1ccncc1; active
COc1cc2cc(C(=O)N3C[C@@H](CCl)c4c3cc(OC(=O)N(CCC(=O)N3CCN(C)CC3)[C@H]3CCSSC3)c3ccccc43)[nH]c2c(OC)c1OC; active
Cc1ccc(-c2cc(C(=O)N=Nc3c(O)[nH]c4ccc(F)cc34)c3ccccc3n2)cc1; inactive
O=C(O)CC1S/C(=N/N=C/c2nc3ccccc3s2)NC1=O (stereo not drawn); inactive
O=C(N/N=C/c1ccc(Br)o1)c1[nH]c2ccc(Br)cc2c1-c1ccccc1; active
O=C1CCC(N2C(=O)c3cccc(NCCOCCOCCOCCC(=O)NCCCC(=O)NC(c4ccc5c(c4)OCO5)c4cc(Cl)c5cccnc5c4O)c3C2=O)C(=O)C1 (stereo not drawn); active
COc1cc(C2CC(c3ccc(Cl)cc3)=Nc3c(N)nc(N)nc3N2)ccc1Oc1nc(Nc2ccc(F)cc2)nc(N(C)C)n1 (stereo not drawn); inactive

Query string: Each compound tested received a call. Report the one for O=C1NC(=NC23CC4CC(CC(C4)C2)C3)N/C1=C\c1ccc2ncccc2c1 .
Result string: active

---

tested on: MDA-MB-468 breast; experiment: NCI-60 one-dose screen, 48 h (100 = growth as untreated, 0 = no growth, -100 = all killed); details: 10 µM unless noted
The panel holds about 83,000 compounds, 20% with a hit somewhere; the sample as a whole holds those more often.
Overview of recorded growth for various compounds
Report the figure in % without appending any unit label.

COc1ccc(-c2cc(C)nc3[nH]c(=O)sc23)cc1; 76
CCC(=O)c1c2c(c3ccc4c5ccccc5ccc4n13)C(=O)c1ccccc1C2=O; 88.6
COc1cccc(-c2ccc(/C=N/NC(=O)c3[nH]c4ccc(Br)cc4c3-c3ccccc3)s2)c1; 7.16
CCOC(=O)/C(F)=C/C1CC1C(c1ccccc1)c1ccccc1 (stereo not drawn); 36.2
O=C(c1ccc(Cl)cc1)C1[C@H](c2ccccc2Cl)[C@@H](c2ccccc2)NC12C(=O)Nc1ccc(Br)cc12 (stereo partly drawn); -83.2
O=C(Cc1c(-c2cccc([N+](=O)[O-])c2)n(-c2ncnc3c2c(-c2ccccc2)c(-c2ccccc2)n3Cc2ccccc2)[nH]c1=O)c1ccc(Cl)c(Cl)c1; -10.4
Cc1cc(C(NC(=O)C2CC3(CC(Nc4cccc5c4C(=O)N(C4CCC(=O)NC4=O)C5=O)C3)C2)c2ccc3c(c2)OC(F)(F)O3)c(O)c2ncccc12 (stereo not drawn); -30.6
O=CNc1ccc(-n2cnc3cc(-c4ccc(O)cc4)ccc32)cc1; 86.1
Cc1nc(N)ncc1-c1ccc2ncnc(N3CCc4cc(F)c(Cl)cc43)c2c1; -22.5
COc1ccc2c(c1)N=c1c-2cc2c(O)[nH]c(=S)n2c1=O; -25.9

Reported MDA-MB-468 breast growth for item O=C(N=Nc1c(O)[nH]c2ccc(Cl)cc12)c1ccc2nc(-c3ccc(Cl)cc3)[nH]c2c1 was -80.7

The measured growth that CCCn1c(NC(=O)c2cccc(C(N)=O)c2)nc2cc(CN3CCCCC3)ccc21 showed for MDA-MB-468 breast is 82.5

Entry COc1cc(/C=C/C(=O)c2ccc(S(=O)(=O)NCCNc3nc(N(C)C)nc(N4CCOCC4)n3)cc2)cc(OC)c1OC under MDA-MB-468 breast had growth of -100

Known value: MDA-MB-468 breast growth of the compound O=C1CCC(N2C(=O)c3cccc(NCCOCCOCCOCCC(=O)NCCCC(=O)NC(c4ccc5c(c4)OCO5)c4cc(Cl)c5cccnc5c4O)c3C2=O)C(=O)C1 (stereo not drawn) equals -33.9

I looked up COc1ccc2[nH]c(O)c(N=NC(=O)c3ccc4nc(-c5ccc(Cl)cc5)[nH]c4c3)c2c1 and its growth for MDA-MB-468 breast was -48.3

Observed growth, MDA-MB-468 breast, COc1ccc(Nc2nnc(-c3c[nH]c4ccccc34)o2)cc1 : -7.14

Field growth (system: MDA-MB-468 breast) for entry Cc1cccc(/C=C/c2ccc(NC(=S)NCCCCN(C)C)cc2)c1 = -83.5

Lab note: compound COc1ccc2[nH]cc(-c3cc4nc(-c5cn(C)c6ncccc56)cc(N)n4n3)c2c1 tested on MDA-MB-468 breast; recorded growth was -75.9
